- Tested on: A549
- assay: Cell cycle arrest in human A549 cells assessed as accumulation at G2/M phase at 15 nM after 24 hrs by propidium iodide staining based flow cytometry (reference value: 11 +/- 4%)
- Assay type: functional
metric_name: Activity
Give the figure together with its unit, number first.

Solved entries:
smiles_string: COc1cc2c(c(OC)c1OC)-c1ccc(OC)c(=O)cc1[C@@H](NC(=O)CBr)CC2
result: 53%

smiles_string: COc1cc2c(c(OC)c1OC)-c1ccc(OC)c(=O)cc1[C@@H](NC(=O)c1ccc(Cl)cc1)CC2
result: 48%

smiles_string: COc1cc2c(c(OC)c1OC)-c1ccc(OC)c(=O)cc1[C@@H](NC(=O)c1ccccc1Cl)CC2
result: 55%

Pending compound:
Would you kindly share the measured Activity for COc1cc2c(c(OC)c1OC)-c1ccc(OC)c(=O)cc1[C@@H](NC(=O)CCl)CC2 ?
55%

These data points were gathered from ChEMBL document CHEMBL4196091.
